target: furin, P09958; assay: furin cleavage Z-score vs untreated control; higher = more cleavage, active = 3.5 or more, inactive = 1 or less, 8 variable residues between constant flanks; conditions: 30 min;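 also: purified furin at 1:10 enzyme:substrate in 50 mM HEPES pH 7.5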
Sequence (P09958 whole entry): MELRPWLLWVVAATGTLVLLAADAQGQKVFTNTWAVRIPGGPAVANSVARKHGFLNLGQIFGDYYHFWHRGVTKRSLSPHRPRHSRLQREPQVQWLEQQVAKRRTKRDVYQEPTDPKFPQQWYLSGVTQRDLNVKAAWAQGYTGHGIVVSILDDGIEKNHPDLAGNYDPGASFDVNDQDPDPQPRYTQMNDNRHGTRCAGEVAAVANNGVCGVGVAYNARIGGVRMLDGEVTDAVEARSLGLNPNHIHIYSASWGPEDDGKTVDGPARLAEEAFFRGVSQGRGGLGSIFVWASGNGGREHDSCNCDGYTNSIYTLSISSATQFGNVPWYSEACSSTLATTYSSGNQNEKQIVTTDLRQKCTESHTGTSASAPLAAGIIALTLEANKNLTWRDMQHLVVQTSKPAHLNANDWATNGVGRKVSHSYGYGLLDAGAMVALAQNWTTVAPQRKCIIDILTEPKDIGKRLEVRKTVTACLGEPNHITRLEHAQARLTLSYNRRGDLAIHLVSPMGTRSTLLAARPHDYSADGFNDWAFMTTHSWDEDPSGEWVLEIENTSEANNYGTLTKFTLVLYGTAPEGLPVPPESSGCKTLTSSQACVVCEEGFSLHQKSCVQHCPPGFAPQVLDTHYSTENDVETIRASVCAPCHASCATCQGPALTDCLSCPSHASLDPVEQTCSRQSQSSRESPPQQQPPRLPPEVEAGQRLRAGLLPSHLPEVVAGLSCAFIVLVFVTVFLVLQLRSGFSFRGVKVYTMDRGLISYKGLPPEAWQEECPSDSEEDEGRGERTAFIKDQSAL
The list shows a part of the results. The hit rate among all sequences tested is not known here.
Metric: furin cleavage Z-score
Give a plain numeric answer without units written out.

furin cleavage Z-score in this record for CAESTLSTALAGNASASA [HC1329] : 1.27

The reported value for CAEVICHRPSAGNASASA [HC2344] in terms of furin cleavage Z-score is 1.17

Reported furin cleavage Z-score of CASVCCSMSYAGNASASA [HC1997] : -0.657

Measured furin cleavage Z-score, CARRERSIKSAGNASASA [FS-863] : 7

Short answer for CARRRRSRSSAGNASASA [FS-3263] : furin cleavage Z-score was 8.33
